All values here come from patent US7737159B2.

Target: bacterial protein synthesis (S30 extract from quinolone-succeptable Streptococcus pneumoniae ATCC 46919)
Experiment: Translation assay, firefly luciferase reporter system with S30 Streptococcus pneumoniae extract
Details: luciferase mRNA, read-out: IC50, concentration causing 50% inhibition of bacterial protein synthesis
attributeMeasured: IC50

[
  {
    "chemicalStructure": "CC(=O)NC[C@H]1CN(c2ccc(N3CCOCC3)c(F)c2)C(=O)O1",
    "recordedResult": "~3000 nM"
  }
]
